Biological target: Cytochrome P450 1A2 (Homo sapiens) (UniProt P05177)
Sequence (P05177 whole entry, looked up): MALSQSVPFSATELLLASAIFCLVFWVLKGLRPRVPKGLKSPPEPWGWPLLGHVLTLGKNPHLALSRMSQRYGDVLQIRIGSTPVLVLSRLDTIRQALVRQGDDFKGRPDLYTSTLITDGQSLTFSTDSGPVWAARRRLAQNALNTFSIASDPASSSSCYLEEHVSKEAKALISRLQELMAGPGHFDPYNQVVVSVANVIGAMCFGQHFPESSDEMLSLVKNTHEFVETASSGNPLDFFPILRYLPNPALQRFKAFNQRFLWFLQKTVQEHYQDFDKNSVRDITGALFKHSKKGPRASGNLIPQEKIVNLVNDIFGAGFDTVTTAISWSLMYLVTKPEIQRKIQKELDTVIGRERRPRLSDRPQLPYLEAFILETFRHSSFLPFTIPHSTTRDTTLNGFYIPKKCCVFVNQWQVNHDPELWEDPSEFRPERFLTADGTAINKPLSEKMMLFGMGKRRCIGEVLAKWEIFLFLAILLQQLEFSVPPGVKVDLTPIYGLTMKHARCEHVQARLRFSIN
Assay: p450-cyp1a2 (AID 410)
Settings: recombinant CYP1A2, luciferin-ME demethylation, luminescence; series mostly up to 25.6 µM
Description: The P450 gene superfamily is involved in metabolism and the clearance of xenobiotics. This assay used human CYP1A2 to measure the demethylation of luciferin 6' methyl ether (Luciferin-ME; Promega-Glo) to luciferin. The luciferin is then measured by luminescence after the addition of a luciferase detection regeant. Luciferin-ME concentration in the assay was equal to its Km for CYP1A2. NCGC Assay Protocol Summary: […]
Inconclusive results are not listed. Calls of active or inactive are those of the source. Calls follow the shape of the full dose curve.
Lab note: assign the record to one of YES (active), NO (inactive)

Here are 2 compounds together with their reported answers.
STRUCTURE_STRING: c1ccc(N2CCC3(CCNCC3)CC2)cc1
GROUP: NO
--
STRUCTURE_STRING: C[N+]1(C)CCO[C@](O)(c2ccc(-c3ccc([C@]4(O)C[N+](C)(C)CCO4)cc3)cc2)C1
GROUP: NO

QUERY: What did this assay record as the result for Clc1ccccc1-c1cncnc1NCCc1cnc[nH]1 ?
RESULT: YES

###

system: CP286; assay: qHTS profiling for inhibitors of Plasmodium falciparum proliferation (AID 504749); also: nearly all actives have a fitted effect of over 60% in size; conditions: P. falciparum in erythrocytes, SYBR Green DNA, 72 h; series mostly up to 28.7 µM
Results filed as inconclusive are left out. Activity calls are given as the source filed them. Calls follow the shape of the dose curve; as a rule, active = well fitted inhibition curve with a large enough effect; inconclusive = small, poorly fitted or top-dose-only effect; inactive = flat fitted curve, though single readings scatter.
ENDPOINT: outcome

COMPOUND: C[C@]12CC[C@H](O)CC1=CCC1C2CC[C@]2(C)C(=O)CC[C@@H]12 (stereo partly specified)
TEST_SYSTEM: CP286
outcome: inactive
//
COMPOUND: C[N+]1([O-])[C@@H]2CC(OC(=O)[C@@H](CO)c3ccccc3)C[C@@H]1[C@H]1O[C@H]12 (stereo partly specified)
TEST_SYSTEM: CP286
outcome: inactive
//
COMPOUND: CCNC[C@H](O)c1cccc(O)c1
TEST_SYSTEM: CP286
outcome: inactive
//
COMPOUND: CC[C@@]1(c2ccc(N)cc2)CCC(=O)NC1=O
TEST_SYSTEM: CP286
outcome: inactive
//
COMPOUND: CNC[C@H](O)c1ccc(O)cc1
TEST_SYSTEM: CP286
outcome: inactive

Reported CP286 outcome for item CC(=O)OCC(=O)[C@@H]1CC[C@H]2[C@H]3CC[C@H]4C[C@@H](O)CC[C@]4(C)[C@@H]3C(=O)C[C@@]12C was inactive

###

experiment: Primary qHTS for inhibitors of MERS-S pseudo-typed particle cell entry (AID 1479149); settings: MERS-S pseudotyped particle entry, luciferase; series mostly up to 57.1 µM; also: nearly all actives have a fitted effect of over 60% in size
Inconclusive results are not listed. Active and inactive are the calls of the source. Calls follow the shape of the full dose curve.
Lab note: assign the record to one of active, inactive

Here are 3 compounds together with their reported answers.
COMPOUND: CCC(C(=O)O)[C@H]1CC[C@H](C)[C@H]([C@@H](C)[C@H](O)[C@H](C)C(=O)[C@H](CC)[C@H]2OC3(C=C[C@@H](O)[C@]4(CC[C@@](C)([C@H]5CC[C@](O)(CC)[C@H](C)O5)O4)O3)[C@H](C)C[C@@H]2C)O1 (stereo partly drawn)
GROUP: active
//
COMPOUND: O=C(O)CCCN1CCC(O[C@@H](c2ccc(Cl)cc2)c2ccccn2)CC1
GROUP: inactive
//
COMPOUND: CC[N+](CC)(CC)CCC(O)(c1ccccc1)C1CCCCC1 (stereo not drawn)
GROUP: inactive

QUERY: What did this assay record as the result for CC1(C)C2CC[C@]3(C)C(C(=O)C=C4[C@@H]5C[C@@](C)(C(=O)O)CC[C@]5(C)CC[C@]43C)[C@@]2(C)CC[C@@H]1O (stereo partly drawn) ?
RESULT: inactive

QUERY: What did this assay record as the result for O=c1ccc2cc(O[C@@H]3O[C@H](CO)[C@H](O)[C@H](O)[C@H]3O)c(O)cc2o1 ?
RESULT: inactive

QUERY: What did this assay record as the result for CCOC(=O)[C@H](CS)NCCN[C@@H](CS)C(=O)OCC ?
RESULT: inactive

QUERY: What did this assay record as the result for C[C@H]1[C@H](O)[C@@H](C)/C=C/C=C/CC/C=C/C=C/C=C/C=C/C(OC2O[C@H](C)[C@@H](O)[C@H](N)[C@@H]2O)CC2O[C@](O)(CC(O)C(O)CCC(O)CC(O)CC(O)CC(=O)O[C@H]1C)CC(O)C2C(=O)O (stereo partly drawn) ?
RESULT: inactive

QUERY: What did this assay record as the result for C=C1CC[C@H](O)C/C1=C\C=C1/CCC[C@]2(C)[C@@H]([C@H](C)CC[C@H](O)C(C)(C)O)CC[C@@H]12 ?
RESULT: inactive
